tested on: BUB1; details: concentration: 1 μM, replicates: in singlicate; n = 1
# %Inh values compiled below
Report the value in % with no unit label.

# count of solved cases: 2
MOLECULE	DISPLAY UNIT	RECORDED VALUE
Cn1ccc2ncnc(Oc3cccc(C(=O)Nc4ccccc4)c3)c21	%	8
CC(=O)Nc1nc2cnc(Nc3cc(NC(=O)c4cccc(CCC#N)c4)ccc3C)nc2s1	%	14

Prompt: Item under review: Cc1cccc(-c2nc(Nc3ccc4[nH]ncc4c3)c3ccccc3n2)n1 [GW857175] . Reported %Inh?
Completion: 65

Prompt: Item under review: O=C(Nc1ccccc1)Nc1cccc(Oc2ccc3nccn3n2)c1 . Reported %Inh?
Completion: 0

Prompt: Item under review: Nc1ncnc2[nH]c(-c3ccccc3)nc12 [AH5015] . Reported %Inh?
Completion: 38

Prompt: Item under review: Cc1c(O)cccc1Nc1ccnc2ccc(C(F)(F)F)cc12.Cl [GW466413] . Reported %Inh?
Completion: 29

Prompt: Item under review: O=C(O)COc1ncnc2cc(-c3ccc4[nH]ncc4c3)sc12 . Reported %Inh?
Completion: 25

Prompt: Item under review: Cc1cccc(-c2cc(Nc3ccncc3)c3ccccc3n2)n1 [GSK223675] . Reported %Inh?
Completion: 0

Prompt: Item under review: Cc1cc(-c2ccc3c(c2)CC[C@@H](N[C@@H](C)c2ccccc2)C3)cnc1N.Cl [GW412617] . Reported %Inh?
Completion: 17

----------
tested on: DAPK1
pKd: −log10 of the molar value.
METRIC: pKd

Prompt: Item under review: Cc1ccccc1-n1cnc2c(N)ncnc21 [SKF-97510] . Reported pKd?
Completion: < 5.00

----------
tested on: ACVR1; details: concentration: 1 μM, replicates: in singlicate; n = 1
METRIC: %Inh (%)
Report the value in % with no unit label.

# count of solved cases: 4
COMPOUND	DISPLAY UNIT	RECORDED VALUE
Nc1ncnc2[nH]c(-c3ccccc3)nc12 [AH5015]	%	37
Cc1cccc(-c2nc(Nc3ccc4[nH]ncc4c3)c3ccccc3n2)n1 [GW857175]	%	0
Cc1cccc(-c2nc(Nc3ccncc3)c3ccccc3n2)n1 [GW855857]	%	15
COc1ccccc1CNC(=O)c1cc(C(=O)c2ccccc2C)c[nH]1 [GSK364507]	%	0

Kindly consider the entry below.
Prompt: Enter reported %Inh observed with ACVR1 for CC(C)(C)c1ccc(C(=O)Nc2cn3cc(Cl)ccc3n2)cc1
Completion: 0

----------
system: MAP4K2
METRIC: pKd
Quick note: pKd values are minus log10 of concentrations in mol/L.

Prompt: Item under review: Cc1cc(-c2ccc3c(c2)CC[C@@H](N[C@@H](C)c2ccccc2)C3)cnc1N.Cl . Reported pKd?
Completion: 7.37

----------
system: PRKG2; settings: concentration: 1 μM, replicates: in singlicate; n = 1
METRIC: %Inh (%)
Report the value in % with no unit label.

MOLECULE	RECORDED VALUE
Cc1cccc(-c2nc(Nc3cccc(C(N)=O)c3)c3ccccc3n2)n1 [GW876019]	0
Cc1ccc(C(=O)Nc2ccc(Nc3ccnc4cc(-c5ccccn5)ccc34)cc2O)cc1.Cl [GW440146]	0
COc1ccc(Nc2nccc(NCCNC(=O)Nc3ccccc3F)n2)cc1 [GSK1379901]	0
C[C@@H]1CCCCN1c1cc(-c2ccc3c(N)n[nH]c3c2)nc(N)n1 [GSK2258759]	14
O=S(=O)(c1ccc(-c2ccnc3[nH]ccc23)cc1)N1CCCC1 [GSK846226]	14

Prompt: Item under review: COC(=O)c1c(-c2ccccc2)c2cc(OC)ccc2c(=O)n1Cc1ccccc1 . Reported %Inh?
Completion: 2

Prompt: Item under review: Cc1cccc(-c2nc(C)cc(Nc3ccncc3)n2)n1 [GSK257997] . Reported %Inh?
Completion: 6

Prompt: Item under review: Fc1cccc(COc2nnc(-c3ccc4c(c3)CCO4)o2)c1 . Reported %Inh?
Completion: 0
